Molecular target: γ-secretase (Homo sapiens)
Construct: endogenous in cells
Assay: In vitro γ-secretase activity assay, Aβ40 production (ECL)
Assay type: biochemical
Conditions: in vitro inhibition of γ-secretase activity that generates Aβ40; 2.5 hr at 37° C., ECL detection
Test Readout: IC50 (µM)
Numbers only, in µM.

Batch request: IC50 per item, same order as input.
1. O=c1oc2ccccc2c(O)c1C(c1c(O)c2ccccc2oc1=O)C1CCCCC1
2. Cc1ccc2oc(=O)c(C(c3cc(F)c(F)c(F)c3)c3c(O)c4cc(C)ccc4oc3=O)c(O)c2c1
3. CC(=O)Nc1ccc(C(c2c(O)c3ccccc3oc2=O)c2c(O)c3ccccc3oc2=O)cc1

Reply text:
1: 4.2; 2: 3.26; 3: 63.9

Inquiry: Would you kindly share the measured IC50 for O=c1[nH]c2ccccc2c(O)c1C(c1cc(F)c(F)c(F)c1)c1c(O)c2ccccc2[nH]c1=O ?
Reply text: 8

====

Biological target: γ-secretase (Homo sapiens)
Construct: endogenous in cells
Assay: In vitro γ-secretase activity assay, Aβ40 production (ECL)
Assay type: biochemical
Details: in vitro inhibition of γ-secretase activity that generates Aβ40; 2.5 hr at 37° C., ECL detection
I'd be grateful if you could share measured IC50 for these entries.
One number for each entry, in µM.

# annotated cases, reported IC50 shown
O=c1oc2ccccc2c(O)c1C(c1ccc(Br)cc1)c1c(O)c2ccccc2oc1=O : 1.7
O=C(CC(c1cc(F)c(F)c(F)c1)c1c(O)c2ccccc2oc1=O)NCc1cc(F)cc(F)c1 (stereo not shown) : 1.86
COc1ccc(/C=C/C(c2c(O)c3ccccc3oc2=O)c2c(O)c3ccccc3oc2=O)cc1 [(trans)-258] : 21.5

Now consider a different compound.
Inquiry: Would you kindly share the measured IC50 for O=c1oc2ccccc2c(O)c1C(/C=C/c1cc(F)c(F)c(F)c1)c1c(O)c2ccccc2oc1=O [(trans)-1] ?
Reply text: 3.7

====

Target: γ-secretase (Homo sapiens, UniProt P49768)
Construct: endogenous in cells
Assay: In vitro γ-secretase activity assay, Aβ42 production (ECL)
Type: biochemical
Details: in vitro inhibition of γ-secretase activity that generates Aβ42; 2.5 hr at 37° C., ECL detection
Mark rule met only for IC50 values smaller than 2 µM; exact matches and larger values are rule not met.

The following compounds have reported results that may help.
O=c1oc2ccccc2c(O)c1C(c1cc(F)c(F)c(F)c1)c1c(O)c2ccccc2oc1=O : rule met
C/C=C/C=C/C(c1c(O)c2ccccc2oc1=O)c1c(O)c2ccccc2oc1=O : rule not met
CC(=O)Nc1ccc(C(c2c(O)c3ccccc3oc2=O)c2c(O)c3ccccc3oc2=O)cc1 : rule not met
O=c1oc2ccccc2c(O)c1C(c1ccccc1F)c1c(O)c2ccccc2oc1=O : rule not met
O=C(CC(c1cc(F)c(F)c(F)c1)c1c(O)c2ccccc2oc1=O)NCc1cc(F)cc(F)c1 (centres unmarked) : rule met

Inquiry: Check if IC50 falls below 2 µM for O=c1oc2ccccc2c(O)c1C(c1ccc(C(F)(F)F)cc1)c1c(O)c2ccccc2oc1=O .
Reply text: rule met

Inquiry: Check if IC50 falls below 2 µM for Oc1ccnc(O)c1C(c1cc(F)c(F)c(F)c1)c1c(O)ccnc1O .
Reply text: rule not met

Inquiry: Check if IC50 falls below 2 µM for O=c1oc2ccccc2c(O)c1C(/C=C/c1cc(F)c(F)c(F)c1)c1c(O)c2ccccc2oc1=O [(trans)-1] .
Reply text: rule not met
